Each item that follows carries a reported excess molar enthalpy.
- assay explanation: excess molar enthalpy (molar enthalpy of mixing); xn = mol fraction of the nth substance listed
- experimental parameters: 298.15 K; 101 kPa; Liquid; Calvet calorimetry; x1 = 0.05

[
  {
    "compound": "FC(F)(F)C(F)(F)C(F)(F)C(F)(F)C(F)(F)C(F)(F)F [perfluorohexane] + C1CCCCC1",
    "excess molar enthalpy / kcal/mol": 0.177
  },
  {
    "compound": "FC(F)(F)C(F)(F)C(F)(F)C(F)(F)C(F)(F)C(F)(F)C(F)(F)F [hexadecafluoroheptane] + CCCCCC",
    "excess molar enthalpy / kcal/mol": 0.15
  },
  {
    "compound": "FC(F)(F)C(F)(F)C(F)(F)C(F)(F)C(F)(F)C(F)(F)C(F)(F)C(F)(F)F [octadecafluorooctane] + CCCCCC",
    "excess molar enthalpy / kcal/mol": 0.183
  },
  {
    "compound": "FC(F)(F)C(F)(F)C(F)(F)C(F)(F)C(F)(F)C(F)(F)F [perfluorohexane] + CCCCCCC",
    "excess molar enthalpy / kcal/mol": 0.135
  },
  {
    "compound": "FC(F)(F)C(F)(F)C(F)(F)C(F)(F)C(F)(F)C(F)(F)F [perfluorohexane] + CCCCCCCC",
    "excess molar enthalpy / kcal/mol": 0.137
  },
  {
    "compound": "FC(F)(F)C(F)(F)C(F)(F)C(F)(F)C(F)(F)C(F)(F)F [perfluorohexane] + CCCCCC",
    "excess molar enthalpy / kcal/mol": 0.133
  }
]

====

- assay explanation: excess molar enthalpy (molar enthalpy of mixing); xn = mol fraction of the nth substance listed
- experimental parameters: 298.15 K; 101 kPa; Liquid; Calvet calorimetry; x1 = 0.9
Entries whose excess molar enthalpy is below 0.9 kJ/mol take class 1; entries at or above 0.9 kJ/mol take class 0.

[
  {
    "compound": "FC(F)(F)C(F)(F)C(F)(F)C(F)(F)C(F)(F)C(F)(F)F [perfluorohexane] + CCCCCCC",
    "assigned label": "class 0"
  },
  {
    "compound": "FC(F)(F)C(F)(F)C(F)(F)C(F)(F)C(F)(F)C(F)(F)F [perfluorohexane] + CCCCCC",
    "assigned label": "class 1"
  },
  {
    "compound": "FC(F)(F)C(F)(F)C(F)(F)C(F)(F)C(F)(F)C(F)(F)F [perfluorohexane] + C1CCCCC1",
    "assigned label": "class 0"
  },
  {
    "compound": "FC(F)(F)C(F)(F)C(F)(F)C(F)(F)C(F)(F)C(F)(F)F [perfluorohexane] + CCCCCCCC",
    "assigned label": "class 0"
  },
  {
    "compound": "FC(F)(F)C(F)(F)C(F)(F)C(F)(F)C(F)(F)C(F)(F)C(F)(F)C(F)(F)F [octadecafluorooctane] + CCCCCC",
    "assigned label": "class 1"
  },
  {
    "compound": "FC(F)(F)C(F)(F)C(F)(F)C(F)(F)C(F)(F)C(F)(F)C(F)(F)F [hexadecafluoroheptane] + CCCCCC",
    "assigned label": "class 1"
  }
]

====

- assay explanation: excess molar enthalpy (molar enthalpy of mixing); xn = mol fraction of the nth substance listed
- experimental parameters: 298.15 K; 101 kPa; Liquid; Calvet calorimetry; x1 = 0.2
Each item that follows carries a reported excess molar enthalpy.

[
  {
    "compound": "FC(F)(F)C(F)(F)C(F)(F)C(F)(F)C(F)(F)C(F)(F)C(F)(F)F [hexadecafluoroheptane] + CCCCCC",
    "unit abbrev": "kcal/mol",
    "excess molar enthalpy": 0.39
  },
  {
    "compound": "FC(F)(F)C(F)(F)C(F)(F)C(F)(F)C(F)(F)C(F)(F)F [perfluorohexane] + CCCCCC",
    "unit abbrev": "kcal/mol",
    "excess molar enthalpy": 0.372
  },
  {
    "compound": "FC(F)(F)C(F)(F)C(F)(F)C(F)(F)C(F)(F)C(F)(F)C(F)(F)C(F)(F)F [octadecafluorooctane] + CCCCCC",
    "unit abbrev": "kcal/mol",
    "excess molar enthalpy": 0.422
  },
  {
    "compound": "FC(F)(F)C(F)(F)C(F)(F)C(F)(F)C(F)(F)C(F)(F)F [perfluorohexane] + C1CCCCC1",
    "unit abbrev": "kcal/mol",
    "excess molar enthalpy": 0.44
  },
  {
    "compound": "FC(F)(F)C(F)(F)C(F)(F)C(F)(F)C(F)(F)C(F)(F)F [perfluorohexane] + CCCCCCCC",
    "unit abbrev": "kcal/mol",
    "excess molar enthalpy": 0.368
  },
  {
    "compound": "FC(F)(F)C(F)(F)C(F)(F)C(F)(F)C(F)(F)C(F)(F)F [perfluorohexane] + CCCCCCC",
    "unit abbrev": "kcal/mol",
    "excess molar enthalpy": 0.382
  }
]

The reported numbers originate from the NIST ThermoML archive (doi:10.1016/j.jct.2007.04.002).
